- target-of-assay: Angiotensin II receptor (Rattus norvegicus, UniProt P29089+P25095+P35351)
- method-notes: Inhibition of [125I]-AII binding to Angiotensin II receptor of rat uterine membrane
Assign IC50 to each entry below.
Numbers only, in nM.

Recorded IC50, per entry:
[
  {
    "test-smiles": "CCCCc1cn(-c2c(CC)cccc2CC)c(=O)n1Cc1ccc(-c2ccccc2-c2nn[nH]n2)nc1",
    "target-of-assay": "Angiotensin II receptor (Rattus norvegicus, UniProt P29089+P25095+P35351)",
    "reported-property": "IC50",
    "recorded-value": 5
  },
  {
    "test-smiles": "CCCCc1cn(CCCC)c(=O)n1Cc1ccc(-c2ccccc2-c2nn[nH]n2)cc1",
    "target-of-assay": "Angiotensin II receptor (Rattus norvegicus, UniProt P29089+P25095+P35351)",
    "reported-property": "IC50",
    "recorded-value": 12
  },
  {
    "test-smiles": "CCCCc1cn(-c2c(C(C)C)cccc2C(C)C)c(=O)n1Cc1ccc(-c2ccccc2-c2nn[nH]n2)nc1",
    "target-of-assay": "Angiotensin II receptor (Rattus norvegicus, UniProt P29089+P25095+P35351)",
    "reported-property": "IC50",
    "recorded-value": 34
  },
  {
    "test-smiles": "CCCCc1cn(-c2c(C)cccc2C)c(=O)n1Cc1ccc(-c2ccccc2-c2nn[nH]n2)nc1",
    "target-of-assay": "Angiotensin II receptor (Rattus norvegicus, UniProt P29089+P25095+P35351)",
    "reported-property": "IC50",
    "recorded-value": 5
  },
  {
    "test-smiles": "CCCCc1cn(CCCC)c(=O)n1Cc1ccc(-c2ccccc2-c2nn[nH]n2)nc1",
    "target-of-assay": "Angiotensin II receptor (Rattus norvegicus, UniProt P29089+P25095+P35351)",
    "reported-property": "IC50",
    "recorded-value": 6.5
  },
  {
    "test-smiles": "CCCCc1cn(-c2ccccc2C(C)(C)C)c(=O)n1Cc1ccc(-c2ccccc2-c2nn[nH]n2)nc1",
    "target-of-assay": "Angiotensin II receptor (Rattus norvegicus, UniProt P29089+P25095+P35351)",
    "reported-property": "IC50",
    "recorded-value": 19
  },
  {
    "test-smiles": "CCCCc1nc(CCCC)n(Cc2ccc(-c3ccccc3-c3nn[nH]n3)cc2)n1",
    "target-of-assay": "Angiotensin II receptor (Rattus norvegicus, UniProt P29089+P25095+P35351)",
    "reported-property": "IC50",
    "recorded-value": 5.6
  }
]

Read the next record carefully.
Lookup result for CCCCc1cn([C@H]2[C@H](C)CCC[C@@H]2C)c(=O)n1Cc1ccc(-c2ccccc2-c2nn[nH]n2)nc1 ; measured IC50: 4.9
